Reference for the values: ChEMBL document CHEMBL1139605

# procedure summary: Half life time in mouse at 2 mg/kg IV administration
# Format: ADME, organism-based
# Design: dose 2 mg/kg, route intravenous
# experimental conditions: in vivo
measure name: half-life (h)
Write down the numeric answer in h and omit the unit.

Requested field: half-life. Item: C[C@H]1C[C@H](C)OC2(CCC3=Cc4c(cnn4-c4ccc(F)cc4)C[C@@]32C)O1 (stereo partly specified) 3

* * *

Reported values of bioavailability for individual entries
# procedure summary: Bioavailability in mouse (dose 10 mg/kg p.o.)
# Type: ADME, organism-based
# experimental conditions: in vivo, po
Write down the numeric answer in % and omit the unit.

{"columns": ["compound", "reading unit", "bioavailability"],
 "data": [
  ["C=C[C@H]1OC2(CCC3=Cc4c(cnn4-c4ccc(F)cc4)C[C@@]32C)O[C@@H]1C=C", "%", 14.3]
]}

Consider now this further compound.
Requested field: bioavailability. Item: C[C@H]1C[C@H](C)OC2(CCC3=Cc4c(cnn4-c4ccc(F)cc4)C[C@@]32C)O1 (some centres not stated) 23

* * *

# Organism: Mus musculus
# procedure summary: Effective concentration required for inhibition of interleukin-6 in mouse thioglycolate-elicited peritoneal exudate cell line using 81% radiolabeled Dexamethasone
# Format: functional
measure name: EC50 (nM)
Write down the numeric answer in nM and omit the unit.

Requested field: EC50. Item: C=C[C@H]1OC2(CCCC3=Cc4c(cnn4-c4ccc(F)cc4)C[C@@]32C)O[C@@H]1C=C 8.7

* * *

# Organism: Mus musculus
# procedure summary: Effective concentration required for inhibition of interleukin-6 in mouse thioglycolate-elicited peritoneal exudate cell line using 52% radiolabeled Dexamethasone
# Type: functional
measure name: EC50 (nM)
Write down the numeric answer in nM and omit the unit.

Requested field: EC50. Item: C=C[C@@H]1CO[C@]2(CCC3=Cc4c(cnn4-c4ccc(F)cc4)C[C@@]32C)O1 168

* * *

# Organism: Mus musculus
# procedure summary: Effective concentration required for inhibition of interleukin-6 in mouse thioglycolate-elicited peritoneal exudate cell line using 72% radiolabeled Dexamethasone
# Assay type: functional
measure name: pEC50
The quantity pEC50 is defined as the negative base-10 logarithm of the molar concentration.

Requested field: pEC50. Item: C[C@@H]1C[C@@H](C)OC2(CCC3=Cc4c(cnn4-c4ccc(F)cc4)C[C@@]32C)O1 (stereo in doubt; form 1) 7.35

* * *

# target under test: Glucocorticoid receptor (Homo sapiens)
# Sequence (P04150 whole entry): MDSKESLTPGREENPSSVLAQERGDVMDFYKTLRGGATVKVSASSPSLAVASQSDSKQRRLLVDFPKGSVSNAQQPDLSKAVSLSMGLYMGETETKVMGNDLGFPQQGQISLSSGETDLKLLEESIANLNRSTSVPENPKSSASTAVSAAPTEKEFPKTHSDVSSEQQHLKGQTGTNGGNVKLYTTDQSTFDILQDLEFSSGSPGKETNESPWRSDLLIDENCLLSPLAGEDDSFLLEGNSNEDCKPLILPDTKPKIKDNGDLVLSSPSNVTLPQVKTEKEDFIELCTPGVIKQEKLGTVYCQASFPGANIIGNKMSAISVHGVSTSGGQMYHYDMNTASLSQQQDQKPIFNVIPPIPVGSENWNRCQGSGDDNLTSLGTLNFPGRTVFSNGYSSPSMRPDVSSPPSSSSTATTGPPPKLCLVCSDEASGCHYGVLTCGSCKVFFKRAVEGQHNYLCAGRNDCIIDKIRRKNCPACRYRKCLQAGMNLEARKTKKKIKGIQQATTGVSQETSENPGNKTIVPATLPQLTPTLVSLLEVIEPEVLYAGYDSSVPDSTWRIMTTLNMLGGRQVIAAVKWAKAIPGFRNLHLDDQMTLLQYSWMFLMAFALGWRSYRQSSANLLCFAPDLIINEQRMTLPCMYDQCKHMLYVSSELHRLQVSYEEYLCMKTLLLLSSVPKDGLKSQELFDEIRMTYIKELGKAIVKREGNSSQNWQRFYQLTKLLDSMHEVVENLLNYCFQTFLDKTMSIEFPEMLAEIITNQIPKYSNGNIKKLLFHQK
# procedure summary: Inhibition of human glucocorticoid receptor alpha isoform
measure name: pIC50
The quantity pIC50 is defined as the negative base-10 logarithm of the molar concentration.

Examples with their reported pIC50 follow.
{"columns": ["molecule", "pIC50"],
 "data": [
  ["C[C@H]1C[C@H](C)OC2(CCC3=Cc4c(cnn4-c4ccc(F)cc4)C[C@@]32C)O1 (stereo partly drawn)", 8.15],
  ["C[C@H]1OC2(CCCC3=Cc4c(cnn4-c4ccc(F)cc4)C[C@@]32C)O[C@@H]1C", 8.00]
]}

Consider now this further molecule.
Identify the measured pIC50 of C[C@]12Cc3cnn(-c4ccc(F)cc4)c3C=C1CCC21OCCO1 (stereo in doubt; 2) for Glucocorticoid receptor (Homo sapiens). 7.86
